Hey, just so you know, these numbers are from patent US4008329A.

Each entry below lists one item and its recorded ED50 value.
Test system: mice
experimental-details: Supramaximal electrical shock test (corneal electrodes)
Format: in vivo
settings: Mus musculus, po, P.O., dose which protects 50% of the animals from tonic tension, read-out: ED 50 ELECTROSHOCK
// note: answer is a bare numeric in mg/kg

As a guide, the following entries are already answered.
{"compound": "CC(C)CCNC1CCCC(Oc2cccc(C(F)(F)F)c2)C1O (stereo not shown)", "ED50 [mg/kg]": 30}
{"compound": "CC(C)CCNC1CCCC(Oc2ccc(Cl)cc2)C1O (stereo not shown)", "ED50 [mg/kg]": 25}

Could you now consider this next compound?
input: If you can, please state the reported ED50 value of CC(C)NC1CCCC(Oc2ccc(Cl)cc2)C1O (stereo not shown) .
output: 300

* * *

Test system: depletion of serotonin (5HT) induced by H75/12
experimental-details: Test using H75/12: inhibition of serotonin depletion
Format: in vivo
settings: Mus musculus, ip; 40 mg/kg I.P., 30 min before H75/12; mice; read-out: Percentage of inhibition of depletion on 5 HT
Each entry below lists one item and its recorded inhibition at 40 mg/kg value.
// note: answer is a bare numeric in %

As a guide, the following entries are already answered.
{"compound": "CC(C)NC1CCCC(Oc2cccc(C(F)(F)F)c2)C1O (centres unmarked) [compound 6]", "tested-system": "depletion of serotonin (5HT) induced by H75/12", "u": "%", "inhibition at 40 mg/kg": 74}
{"compound": "CC(C)NC1CCCC(Oc2ccc(Cl)cc2)C1O (centres unmarked) [compound 2]", "tested-system": "depletion of serotonin (5HT) induced by H75/12", "u": "%", "inhibition at 40 mg/kg": 42}
{"compound": "NC1CCCC(Oc2ccc(Cl)cc2)C1O (centres unmarked) [compound 13]", "tested-system": "depletion of serotonin (5HT) induced by H75/12", "u": "%", "inhibition at 40 mg/kg": 62}
{"compound": "CC(C)NC1CCCC(Oc2ccc(F)cc2)C1O (centres unmarked) [compound 8]", "tested-system": "depletion of serotonin (5HT) induced by H75/12", "u": "%", "inhibition at 40 mg/kg": 59}
{"compound": "CC(C)NC1CCCC(Oc2cccc(Cl)c2)C1O (centres unmarked) [Compound No. 1]", "tested-system": "depletion of serotonin (5HT) induced by H75/12", "u": "%", "inhibition at 40 mg/kg": 99}
{"compound": "CC(C)NC1CCCC(Oc2ccccc2)C1O (centres unmarked) [compound 5]", "tested-system": "depletion of serotonin (5HT) induced by H75/12", "u": "%", "inhibition at 40 mg/kg": 26}
{"compound": "CC(Cc1ccccc1)NC1CCCC(Oc2ccccc2)C1O (centres unmarked) [compound 11]", "tested-system": "depletion of serotonin (5HT) induced by H75/12", "u": "%", "inhibition at 40 mg/kg": 118}

Could you now consider this next compound?
input: If you can, please state the reported inhibition at 40 mg/kg value of CN(C)C1CCCC(Oc2ccc(Cl)cc2)C1O (centres unmarked) [compound 14] .
output: 38

* * *

experimental-details: LD50 oral, acute toxicity
settings: mouse, in vivo; oral administration; mice
measurement-label: LD50 (mg/kg)
// note: answer is a bare numeric in mg/kg

input: If you can, please state the reported LD50 value of CC(C)NC1CCCC(Oc2cccc(Cl)c2)C1O (stereo not shown) [Compound No. 1] .
output: 588

* * *

Tested on: hypotension (H), tachycardia (T), and positive inotropism (I^+) induced by isoprenaline
experimental-details: Cardiovascular parameters: modification of isoprenaline-induced hypotension, tachycardia and positive inotropism
Type: in vivo, chloralised dogs
settings: Canis lupus familiaris; 5 mg/kg intravenous; isoprenaline 0.5 μg/kg intravenous; chloralised dogs; read-out: Cardiovascular parameters, H (hypotension)
Each entry below lists one item and its recorded change in vivo at 5 mg/kg value.
// note: answer is a bare numeric in %

{"compound": "CC(C)CCNC1CCCC(Oc2cccc(C(F)(F)F)c2)C1O (stereo not shown)", "tested-system": "hypotension (H), tachycardia (T), and positive inotropism (I^+) induced by isoprenaline", "measurement-label": "change in vivo at 5 mg/kg", "recorded-measurement": -50}

input: If you can, please state the reported change in vivo at 5 mg/kg value of CC(C)NC1CCCC(Oc2cccc(Cl)c2)C1O (stereo not shown) .
output: 0

input: What do we get for CC(Cc1ccccc1)NC1CCCC(Oc2ccc(F)cc2)C1O (stereo not shown) ?
output: 35

input: What do we get for CN(C)C1CCCC(Oc2ccc(F)cc2)C1O (stereo not shown) ?
output: 30

input: What do we get for CCCCNC1CCCC(Oc2cccc(Cl)c2)C1O (stereo not shown) ?
output: 0

input: What do we get for CN(C)C1CCCC(Oc2ccc(Cl)cc2)C1O (stereo not shown) ?
output: 0

input: What do we get for CC(Cc1ccccc1)NC1CCCC(Oc2ccccc2)C1O (stereo not shown) ?
output: 0

input: What do we get for CC(C)CNC1CCCC(Oc2ccc(Cl)cc2)C1O (stereo not shown) ?
output: 0

input: What do we get for CC(C)NC1CCCC(Oc2cccc(C(F)(F)F)c2)C1O (stereo not shown) ?
output: -18

input: What do we get for CC(C)NC1CCCC(Oc2ccc(Cl)cc2)C1O (stereo not shown) ?
output: 30

* * *

Test system: mice
experimental-details: Supramaximal electrical shock test (corneal electrodes)
Format: in vivo
settings: Mus musculus, po, P.O., dose which protects 50% of the animals from tonic tension, read-out: ED 50 ELECTROSHOCK
measurement-label: ED50 (mg/kg)
// note: answer is a bare numeric in mg/kg

As a guide, the following entries are already answered.
{"molecule": "CC(C)NC1CCCC(Oc2ccc(F)cc2)C1O (stereo not drawn)", "tested-system": "mice", "u": "mg/kg", "recorded-measurement": 200}
{"molecule": "CC(C)NC1CCCC(Oc2cccc(Cl)c2)C1O (stereo not drawn)", "tested-system": "mice", "u": "mg/kg", "recorded-measurement": 100}
{"molecule": "CC(C)CNC1CCCC(Oc2ccc(Cl)cc2)C1O (stereo not drawn)", "tested-system": "mice", "u": "mg/kg", "recorded-measurement": 100}

input: If you can, please state the reported ED50 value of CN(C)C1CCCC(Oc2ccc(F)cc2)C1O (stereo not drawn) .
output: 250

input: What do we get for CCCCNC1CCCC(Oc2cccc(Cl)c2)C1O (stereo not drawn) ?
output: 80
